Test system: Human papillomavirus type 1a E7 protein (residues 1-88)
Assay: HPV1a E7 small-molecule binders, primary screen, biochemical, small-molecule microarray, residues 1-88, 635 nm (AID 1129)
Settings: small-molecule microarray binding, fluorescence 635 nm; higher = more signal
Let's look at some molecules and their measured composite z-score.
Just the number, please.

Known composite z-score results, listed for orientation:
* COC(=O)[C@@]1(Cc2ccccc2)[C@H]2c3cc(C(=O)N4CCCC4)n(CCSCCO)c3C[C@H]2CN1C(=O)c1ccccc1 | 1.21
* COc1ccc(C(O)C2C=CC3C(=O)N(c4ccccc4)C(=O)C3N2Nc2ccccc2)cc1 (centres undefined) | 1.08

Noted for CN1C(=O)[C@@]2(Cc3ccccc3)N=C(c3ccc(OCCCO)cc3)O[C@H]2c2ccccc21 : its composite z-score reads 1.22

Noted for COCCOC(=O)N1C(=O)[C@@]2(c3cc(C#Cc4ccc(OC)cc4)ccc31)[C@H](c1ccc(OCCO)cc1)N1[C@H](c3ccccc3)[C@H](c3ccccc3)OC(=O)[C@H]1[C@@H]2C(=O)Nc1nc2ccccc2s1 : its composite z-score reads 1.16

====

Let's look at some compounds and their measured z-score.
Target: Luciferin 4-monooxygenase (Photinus pyralis)
Assay: firefly luciferase enzyme inhibitors, primary screen, biochemical, luminescence, purified enzyme, 2006 set (AID 1141);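 also: cell-free assay with purified firefly luciferase at 100 ng per well in PBS; test concentration not given here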
Conditions: SteadyGlo luminescence, 30 min, higher = more signal, called active from +8 up or from −8 down
Just the number, please.

Known z-score results, listed for orientation:
- COc1cc(NN2C(C(O)c3cc(OC)c(OC)c(OC)c3)C=CC3C(=O)N(c4ccccc4)C(=O)C32)cc(OC)c1OC (stereo not drawn): -0.771
- O=C1OCC=C[C@H]2OC34C=CCN(c5ccc6ccccc6c5)C(=O)[C@H]3N(CCCCCO)C(=O)[C@@H]4[C@@H]12 (stereo partly drawn): -0.397
- COC(=O)[C@@]1(Cc2ccc(F)cc2)[C@H]2c3cc(C(=O)N4CCCC4)n(CC4CC4)c3C[C@H]2CN1C(=O)c1ccccc1: 1.35
- COc1ccc(C#Cc2ccc3c(c2)[C@]2(C(=O)N3)[C@H](C(=O)N3CCCCCCC3)[C@H]3C(=O)O[C@H](c4ccccc4)[C@H](c4ccccc4)N3[C@@H]2c2ccc(O)cc2)cc1: 0.103
- O=C1c2ccccc2[C@](Cc2ccccc2I)(C(=O)NC2CC2)[C@H](c2ccc(CO)cc2)N1Cc1ccccc1C(F)(F)F: 0.0135

Continue with the compound presented below.
Noted for COCCOC(=O)N1C(=O)[C@@]2(c3cc(C#Cc4ccc(OC)cc4)ccc31)[C@H](c1ccc(OCCO)cc1)N1[C@H](c3ccccc3)[C@H](c3ccccc3)OC(=O)[C@H]1[C@@H]2C(=O)Nc1nc2ccccc2s1 : its z-score reads -1.27

====

Experiment: splicing luciferase reporter signal modulators, primary screen, spliceosome inhibition project, cell-based, HEK293, splice +/- reporter (AID 1101);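 also: HEK293 cells carrying a splicing-competent luciferase reporter gene; test concentration not given here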
Details: luminescence, 24 h, higher = more signal, called active from +8 up or from −8 down
measuredParameter: z-score
Just the number, please.

Known z-score results, listed for orientation:
- CC(CO)N1C(=O)[C@@H]2[C@H]3C(=O)OCC=C[C@H]3OC23C=CCN(c2ccc(Cl)cc2)C(=O)[C@@H]13 (some centres undefined): -0.00913
- C=C(/C(=C/C[C@@H](OC(C)=O)c1ccc(OCCO)cc1)c1cc(C(=O)OC)ccc1OC)C(C)C: 0.0641
- C=C(CCCC)C(=O)CC[C@H](OC(=O)c1ccccc1-c1ccccc1C(=O)O)c1ccccc1OCCO: 2.02
- O=C1O[C@H](c2ccccc2)[C@H](c2ccccc2)N2[C@H]1[C@@H](C(=O)Nc1nc3ccccc3s1)[C@]1(C(=O)Nc3ccc(C#CC4=CCCCC4)cc31)[C@H]2c1ccc(O)cc1: -1.31
- COc1ccc([Si](C)(C)[C@@H]2[C@@H](CCn3cc([C@H](O)c4ccccc4)nn3)O[C@]3(C(=O)N(Cc4cccc(N5C(=O)c6cccc7cccc5c67)c4)c4ccccc43)[C@H]2C)cc1: 1.41
- COc1ccc([Si](C)(C)[C@H]2[C@H](CCO)O[C@@]3(C(=O)N(Cc4ccc(N5C(=O)c6ccccc6Oc6ccccc65)cc4)c4ccccc43)[C@@H]2C)cc1: -0.964
- C=CCC(OC(C)=O)[C@@H]1[C@@H](N(Cc2ccc(-c3cccc(C(F)(F)F)c3)o2)C(=O)c2cccc3ccccc23)c2cc(OCCCO)ccc2N1C(=O)Cc1ccc(OC)cc1 (some centres undefined): -0.57
- COc1ccc(C#Cc2ccc3c(c2)[C@]2(C(=O)N3)[C@H](c3ccc(OCCO)cc3)N3[C@H](c4ccccc4)[C@H](c4ccccc4)OC(=O)[C@H]3[C@@H]2C(=O)N2CCc3cc(OC)c(OC)cc3C2)cc1: -0.517

Continue with the compound presented below.
Noted for [N-]=[N+]=NCc1ccccc1[C@@H]1OC(c2ccc(OCCCO)cc2)=N[C@]1(Cc1ccccc1)C(=O)NCCN1CCOCC1 : its z-score reads 0.0496

====

System: Sam68 (KHDRBS1)
Assay: Sam68 small-molecule binders, primary screen, biochemical, small-molecule microarray, 635 nm fluorescence (AID 1125);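 also: score merges 667 nm channel intensity with signal to noise over triplicate slides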
Details: small-molecule microarray binding, higher = more signal
measuredParameter: composite z-score
Just the number, please.

Noted for CN(C)CCCC[C@@H]1NC(=O)[C@@H]2C[C@H](C(=O)O)[C@H](c3cccc(OCCO)c3)N2C1=O : its composite z-score reads -0.936

Noted for CN1C(=O)[C@@H]2[C@@H](CC(COc3ccccc3)=C([C@H](O)CCc3ccccc3)[C@@H]2CO)C1=O : its composite z-score reads 0.0336

Noted for COCCOC(=O)N1C(=O)[C@@]2(c3ccccc31)[C@H](c1ccccc1OCCO)N1[C@H](c3ccccc3)[C@H](c3ccccc3)OC(=O)[C@H]1[C@@H]2C(N)=O : its composite z-score reads 1.3

====

Experiment: PSAC antagonists in infected red cells, primary screen, cell-based, P. falciparum Indochina, OD700, 18 h (AID 1157)
Conditions: P. falciparum Indochina infected erythrocytes, osmotic lysis OD700, 18 h; higher = more signal, called active from +8 up or from −8 down
Let's look at some compounds and their measured z-score.
Just the number, please.

Known z-score results, listed for orientation:
• O=C1C2C=CC(C(O)c3ccc4c(c3)OCO4)N(Nc3ccccc3)C2C(=O)N1c1ccccc1 (stereo not drawn) = 1.39
• NCCCCCNC(=O)[C@@H]1C[C@@H]2C(=O)N3CCC[C@H]3C(=O)N2[C@@H]1c1ccc(O)cc1 = 0.277

Continue with the compound presented below.
Noted for CCCCC(=C=CC[C@H](O)c1ccc(OCCO)cc1)C[C@H](O)COCc1ccccc1 : its z-score reads 1.02

====

Let's look at some compounds and their measured composite z-score.
Tested on: Plasmodium falciparum Sir2 (PF13_0152, Sir2A)
Test: pfSir2 binders on small-molecule microarrays, primary screen, biochemical, small-molecule microarray, 635 nm fluorescence (AID 1098);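 also: score merges spot fluorescence intensity with its signal-to-noise ratio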
Conditions: small-molecule microarray binding, fluorescence 635 nm; higher = more signal
Just the number, please.

Known composite z-score results, listed for orientation:
- COc1ccc(C(O)C2C=CC3C(=O)N(c4ccccc4)C(=O)C3N2Nc2ccc(C(C)C)cc2)c2ccccc12 (stereo not given): 1.6
- CN(C)C(=O)[C@]1(CCS(=O)(=O)c2ccccc2)N=C(c2ccc(OCCCO)cc2)O[C@@H]1c1ccccc1: 1.45

Noted for Cc1ccc(S[C@]2(C(=O)NC(C)C)CC(=O)N(Cc3ccccc3Cl)[C@@H]2c2ccc(CO)cc2)cc1 : its composite z-score reads 1.23

Noted for CCN(CC)c1ccc(N2CC=CC34O[C@@H]5/C=C\CCC(C)OC(=O)C5[C@H]3C(=O)N(C(C)CO)[C@@H]4C2=O)cc1 (stereo not given in full) : its composite z-score reads -0.516

Noted for C=C(CCCC)C(=O)CC[C@H](OC(C)=O)c1ccc(OCCO)cc1 : its composite z-score reads 0.56

====

Assay: CREB reporter modulators without forskolin, primary screen, cell-based, PC12, CRE-LacZ reporter, unstimulated (AID 1145)
Conditions: no forskolin, luminescence, 4.5 h, higher = more signal, called active from +8 up or from −8 down
Active and inactive are the calls of the source.
measuredParameter: z-score

Known z-score results, listed for orientation:
- CC1CC/C=C\[C@H]2OC34C=CCN(CCN5CCOCC5)C(=O)[C@H]3N(C(C)CO)C(=O)[C@@H]4C2C(=O)O1 (stereo not given in full): -0.0778 (inactive)
- COCCOC(=O)N1C(=O)[C@@]2(c3cc(C#Cc4ccc(OC)cc4)ccc31)[C@H](C(=O)NC[C@H](O)c1ccccc1)[C@H]1C(=O)O[C@H](c3ccccc3)[C@H](c3ccccc3)N1[C@@H]2c1ccc(OCCO)cc1: -1.42 (inactive)
- COC(=O)[C@@]1(Cc2ccccc2CN=[N+]=[N-])N=C(c2ccc(OCCCO)cc2)O[C@H]1c1ccccc1: 2.38 (inactive)
- COC(=O)C(CC#Cc1ccc2c(c1)[C@]1(C(=O)N2)[C@H](c2ccc(O)cc2)N2[C@H](c3ccccc3)[C@H](c3ccccc3)OC(=O)[C@H]2[C@@H]1C(=O)N1CCCCCCC1)C(=O)OC: -0.0515 (inactive)
- C=CCC(OC(C)=O)[C@@H]1[C@@H](N(Cc2cccc3ccccc23)C(=O)c2cccc3ccccc23)c2cc(OCCCO)ccc2N1C(=O)c1ccc2ccccc2c1 (stereo not given in full): -1.1 (inactive)

Noted for O=C1OCCC=C[C@H]2OC34C=CCN(c5ccc(Cl)cc5)C(=O)[C@H]3N(CCCCCCO)C(=O)[C@@H]4C12 (stereo not given in full) : its z-score reads 0.0645 (inactive)

Noted for COC(=O)C1=CC(CCCO)=CC(c2ccc(CN3CCCC3)cc2)N(Cc2cc3c(cc2Br)OCO3)C=C1C(=O)OC (stereo not given) : its z-score reads 0.0118 (inactive)

Noted for CC(C)C(=C=CC[C@@H](O)c1cccc(OCCO)c1)C[C@@H](O)COCc1ccccc1 : its z-score reads 7.66 (inactive)

Noted for CC=CC(O)C1C=CC2C(=O)NC(=O)C2N1Nc1ccccn1 (stereo not given) : its z-score reads -0.329 (inactive)

Noted for NCCCCCNC(=O)[C@H]1C[C@H]2C(=O)N[C@@H](Cc3ccccc3)C(=O)N2[C@H]1c1ccc(O)cc1 : its z-score reads 0.0124 (inactive)
